# testTarget: C3b (Homo sapiens)
# Construct: biotin (chemical biotinylation of C3b)
# Sequence (P01024 23-667 limits assumed): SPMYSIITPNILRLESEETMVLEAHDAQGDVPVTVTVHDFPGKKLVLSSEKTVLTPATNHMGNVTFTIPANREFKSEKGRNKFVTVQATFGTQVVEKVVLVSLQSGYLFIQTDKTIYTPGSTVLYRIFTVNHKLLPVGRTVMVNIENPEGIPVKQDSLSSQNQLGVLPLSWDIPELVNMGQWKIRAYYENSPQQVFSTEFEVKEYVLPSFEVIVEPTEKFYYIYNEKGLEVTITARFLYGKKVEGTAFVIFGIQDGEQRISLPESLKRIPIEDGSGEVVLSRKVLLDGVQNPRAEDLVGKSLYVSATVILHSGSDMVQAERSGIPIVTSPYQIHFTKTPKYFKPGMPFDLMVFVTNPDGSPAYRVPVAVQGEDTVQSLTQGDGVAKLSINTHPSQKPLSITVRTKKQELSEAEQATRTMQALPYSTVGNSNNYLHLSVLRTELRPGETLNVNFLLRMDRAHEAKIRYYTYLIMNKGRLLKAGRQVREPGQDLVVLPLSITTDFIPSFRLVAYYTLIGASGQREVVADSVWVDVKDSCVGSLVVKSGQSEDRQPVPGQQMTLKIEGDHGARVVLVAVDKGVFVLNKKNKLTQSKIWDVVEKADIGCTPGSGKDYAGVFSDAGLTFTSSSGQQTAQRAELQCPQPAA
# Sequence (P01024 749-1663 limits assumed): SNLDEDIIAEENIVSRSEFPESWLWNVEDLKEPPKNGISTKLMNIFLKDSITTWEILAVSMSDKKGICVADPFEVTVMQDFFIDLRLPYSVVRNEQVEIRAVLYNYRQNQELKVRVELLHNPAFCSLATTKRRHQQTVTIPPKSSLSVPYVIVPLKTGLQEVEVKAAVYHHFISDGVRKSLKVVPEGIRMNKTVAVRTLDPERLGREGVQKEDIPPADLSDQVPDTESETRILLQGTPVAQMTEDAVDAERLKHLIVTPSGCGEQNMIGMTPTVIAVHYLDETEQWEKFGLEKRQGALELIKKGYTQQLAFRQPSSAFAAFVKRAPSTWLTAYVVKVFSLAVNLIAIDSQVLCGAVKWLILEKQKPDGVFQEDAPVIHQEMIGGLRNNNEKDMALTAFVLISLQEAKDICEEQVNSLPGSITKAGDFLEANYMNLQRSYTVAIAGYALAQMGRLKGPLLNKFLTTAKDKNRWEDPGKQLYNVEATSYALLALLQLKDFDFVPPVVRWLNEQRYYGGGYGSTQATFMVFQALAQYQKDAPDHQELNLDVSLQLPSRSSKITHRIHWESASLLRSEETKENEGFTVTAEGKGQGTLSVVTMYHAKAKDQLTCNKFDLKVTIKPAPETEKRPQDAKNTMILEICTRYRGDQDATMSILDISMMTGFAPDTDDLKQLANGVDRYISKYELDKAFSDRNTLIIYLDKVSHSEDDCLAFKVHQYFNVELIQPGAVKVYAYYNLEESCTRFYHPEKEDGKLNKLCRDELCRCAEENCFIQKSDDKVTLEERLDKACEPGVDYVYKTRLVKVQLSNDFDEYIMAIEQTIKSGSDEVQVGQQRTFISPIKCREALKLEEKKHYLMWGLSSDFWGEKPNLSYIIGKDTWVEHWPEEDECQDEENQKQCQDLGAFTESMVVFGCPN
# assayExplanation: SPR analysis of binding kinetics to immobilized C3b
# conditionInfo: SPR, 25° C., PBS-T
Bridge positions count the residues as written; N and C are the ends. Square brackets hold non-standard residues; d marks the D form. Peptide text beside a SMILES is read from it. Trp(1-Me) = Cn1cc(C[C@H](N)C(=O)O)c2ccccc21; Nle = CCCC[C@H](N)C(=O)O; Sar = CNCC(=O)O
Listed molecules paired with reported kd

molecule: CC[C@H](C)[C@H](NC(=O)[C@@H]1CSSC[C@H](NC(=O)[C@@H](NC(C)=O)[C@@H](C)CC)C(=O)N[C@@H](C(C)C)C(=O)N[C@@H](Cc2cn(C)c3ccccc23)C(=O)N[C@@H](CCC(N)=O)C(=O)N[C@@H](CC(=O)O)C(=O)N[C@@H](Cc2c[nH]c3ccccc23)C(=O)NCC(=O)N[C@@H](C)C(=O)N[C@@H](Cc2c[nH]cn2)C(=O)N[C@@H](CCCNC(=N)N)C(=O)N1)C(N)=O [Peptide 16]
kd: 11.0 10^−3/s

molecule: CC[C@H](C)[C@H](NC(=O)[C@@H]1CSSC[C@H](NC(=O)[C@@H](NC(C)=O)[C@@H](C)CC)C(=O)N[C@@H](C(C)C)C(=O)N[C@@H](Cc2cn(C)c3ccccc23)C(=O)N[C@@H](CCC(N)=O)C(=O)N[C@@H](CC(=O)O)C(=O)N[C@@H](Cc2c[nH]c3ccccc23)C(=O)N(C)CC(=O)N[C@@H](C)C(=O)N[C@@H](Cc2c[nH]cn2)C(=O)N[C@@H](CCCNC(=N)N)C(=O)N1)C(N)=O [Peptide 17, Ac−Ic[CV(^1−MeW)QDW(^N−MeG)AHRC]I-NH2]
kd: 6.6 10^−3/s

molecule: CCCC[C@H](NC(=O)[C@@H]1CSSC[C@H](NC(=O)[C@@H](NC(C)=O)[C@@H](C)CC)C(=O)N[C@@H](C(C)C)C(=O)N[C@@H](Cc2cn(C)c3ccccc23)C(=O)N[C@@H](CCC(N)=O)C(=O)N[C@@H](CC(=O)O)C(=O)N[C@@H](Cc2c[nH]c3ccccc23)C(=O)N(C)CC(=O)N[C@@H](C)C(=O)N[C@@H](Cc2c[nH]cn2)C(=O)N[C@@H](CCCNC(=N)N)C(=O)N1)C(N)=O [Peptide 19] (Ac-ICV[Trp(1-Me)]QDW[Sar]AHRC[Nle]-NH2; disulfide 2-12)
kd: 6.6 10^−3/s

For the molecule CC[C@H](C)[C@H](NC(C)=O)C(=O)N[C@H]1CSSC[C@@H](C(=O)N(C)[C@H](C(N)=O)[C@@H](C)CC)NC(=O)[C@H](CCCNC(=N)N)NC(=O)[C@H](Cc2c[nH]cn2)NC(=O)[C@H](C)NC(=O)CN(C)C(=O)[C@H](Cc2c[nH]c3ccccc23)NC(=O)[C@H](CC(=O)O)NC(=O)[C@H](CCC(N)=O)NC(=O)[C@H](Cc2cn(C)c3ccccc23)NC(=O)[C@H](C(C)C)NC1=O [Peptide 21] , what kd is on record?
3.5 10^−3/s

For the molecule CC[C@H](C)[C@H](NC(C)=O)C(=O)N[C@H]1CSSC[C@@H](C(=O)N[C@@H](CC(C)C)C(N)=O)NC(=O)[C@H](CCCNC(=N)N)NC(=O)[C@H](Cc2c[nH]cn2)NC(=O)[C@H](C)NC(=O)CN(C)C(=O)[C@H](Cc2c[nH]c3ccccc23)NC(=O)[C@H](CC(=O)O)NC(=O)[C@H](CCC(N)=O)NC(=O)[C@H](Cc2cn(C)c3ccccc23)NC(=O)[C@H](C(C)C)NC1=O [Peptide 18, Ac−Ic[CV(^1−MeW)QDW(^N−MeG)AHRC]L-NH2] (Ac-ICV[Trp(1-Me)]QDW[Sar]AHRCL-NH2; disulfide 2-12) , what kd is on record?
6.0 10^−3/s

Source listed as patent US9371365B2.
